- run_description: LD9 cell viability loss – luminescence, high throughput, cytotoxicity control for cell surface PrPc inhibitor project (AID 743201)
- reported_conditions: LD9 cells cytotoxicity, at 13.8 µM
In all, about 1,500 compounds went through this assay and about 420 (28%) were called active. Cut-off read from the data, not from the text of the source: active = inhibition above about 9.5%; inactive = the rest. Not all results are given here.
Labels: yes (active), no (inactive)

{"molecule": "O=c1[nH]cccc1-c1nc2ccccc2n1Cc1ccc(Cl)cc1", "assigned_class": "yes"}
{"molecule": "COc1ccc2c(Cl)c(-c3nnco3)sc2c1", "assigned_class": "no"}
{"molecule": "Cc1ccsc1C(=O)OCC(=O)Nc1cccc(F)c1", "assigned_class": "no"}
{"molecule": "FC(F)(F)c1cccc(NC(=S)OC2CCC23CCC(c2ccccc2)CC3)c1 (centres undefined)", "assigned_class": "no"}
{"molecule": "Cc1cccc(NC(=O)c2nc(S(=O)(=O)Cc3ccccc3)ncc2Cl)c1", "assigned_class": "yes"}
{"molecule": "Cc1ccnc(NC(=O)C2CCN(S(=O)(=O)c3c(C)c(C)cc(C)c3C)CC2)c1", "assigned_class": "no"}
{"molecule": "CC(=O)c1nc(N2C(=O)C3CC=C(C)CC3C2=O)sc1C (centres undefined)", "assigned_class": "no"}
{"molecule": "COc1ccc(NC(=O)COC(=O)CNC(=O)C2CCCCC2)cc1", "assigned_class": "no"}
{"molecule": "COc1ccc(S(=O)(=O)N2CCOCC2)cc1NC(=O)CSc1ncnc2ccccc12", "assigned_class": "no"}
{"molecule": "N#Cc1c(-c2cccs2)nc(SCC(=O)c2ccc(Br)cc2)[nH]c1=O", "assigned_class": "no"}
{"molecule": "CCOC(=O)c1c(C)[nH]c(=S)c(C#N)c1-c1ccccc1", "assigned_class": "no"}
{"molecule": "O=C1CCCC2=C1C(c1cccs1)n1nc(SCc3ccccc3)nc1N2 (centres undefined)", "assigned_class": "no"}
{"molecule": "CCOC(=O)c1c(-c2ccccc2)oc2cc(Br)c(O)cc12", "assigned_class": "no"}
{"molecule": "COc1cccc2sc3cc(NCC[C@@H]4CCCN4C)ccc3c(=O)c12", "assigned_class": "no"}
{"molecule": "CO[C@H]([C@H](C)/C=C/N(C)C=O)[C@@H](C)C(=O)CC[C@H](C)[C@H](O)[C@H](C)[C@H]1OC(=O)/C=C/C(C)=C/[C@H](O)[C@H](OC)C[C@@H]2C=CC[C@@H](C[C@H](OC)[C@@]3(CO3)[C@@H](OC)C[C@@H](OC)[C@@H]1C)O2", "assigned_class": "yes"}
{"molecule": "NC(=O)C1CCN(Cc2nc3c(Br)cc(Br)cc3c(=O)[nH]2)CC1", "assigned_class": "no"}
{"molecule": "Cc1ccc(NC(=O)c2sc3nc(N)c(C#N)cc3c2N)cc1", "assigned_class": "yes"}
{"molecule": "O=C(CC(O)(C(F)(F)F)C(F)(F)F)Nc1ccc(Cl)c(Cl)c1", "assigned_class": "yes"}
{"molecule": "CCCOc1ccc(C2C(C(=O)c3ccc(C)o3)=C(O)C(=O)N2CCCn2ccnc2)cc1 (centres undefined)", "assigned_class": "no"}
{"molecule": "O=C(COC(=O)c1ccccc1SCC(=O)NC1CCCCC1)NC1CCCCC1", "assigned_class": "no"}
{"molecule": "O=C(Nc1cccn(Cc2ccccc2Cl)c1=O)NC1CCCCC1", "assigned_class": "no"}
{"molecule": "COC(=O)Cc1[nH]n(-c2nc3ccccc3s2)c(=O)c1C(C)=Nc1ccc(OC)cc1", "assigned_class": "no"}
{"molecule": "O=C(Oc1ccccc1)Oc1ccc2c(c1)oc(=O)c1ccccc12", "assigned_class": "no"}
{"molecule": "COc1cc(-n2c(=S)[nH]c3ccc(C)cc3c2=O)c(Cl)cc1Cl", "assigned_class": "no"}
{"molecule": "O=C(c1ccc(F)cc1)c1cn(Cc2ccc(F)cc2)c2cc3c(cc2c1=O)OCCO3", "assigned_class": "no"}
{"molecule": "COc1ccc(C(=O)Nc2nc(-c3ccc(S(=O)(=O)N4CCOCC4)cc3)cs2)cc1", "assigned_class": "yes"}
{"molecule": "O=C(Nc1ccc(C2CC2(Cl)Cl)cc1)c1cccc([N+](=O)[O-])c1 (centres undefined)", "assigned_class": "yes"}
{"molecule": "Cc1cc2ccccc2n1CCNC(=O)COc1ccc2ccccc2c1", "assigned_class": "no"}
{"molecule": "O=C(Cc1ccccc1)Nc1cccc(NC(=O)c2ccccc2)c1", "assigned_class": "no"}
{"molecule": "Cc1cccc(CS(=O)(=O)c2ncc(Cl)c(C(=O)Nc3ccc(F)cc3)n2)c1", "assigned_class": "yes"}
{"molecule": "Cn1c(=S)sc2ccc3ccccc3c21", "assigned_class": "no"}
{"molecule": "CCCCNc1c(-c2cccc(Sc3ccc(OC)cc3)c2)nc2ccccn12", "assigned_class": "yes"}
{"molecule": "CC(=O)N1CCCc2cc(S(=O)(=O)N3CCCC(C(=O)N4CCN(c5cccc(Cl)c5)CC4)C3)ccc21 (centres undefined)", "assigned_class": "yes"}
{"molecule": "CCC(C)(O)C(=O)OC1C(=O)OC2CC3C(C)=CC(=O)C(O)C3(C)C3C4(O)OCC23C1C(C)C4O (centres undefined)", "assigned_class": "yes"}
